Data origin: patent US9854804B2

MIC listing for selected compounds.
system: VRE 3; assay: Antibacterial activity against vancomycin-resistant bacteria (MIC); format: cell-based; settings: Enterococcus; VRE 3; read-out: MIC
experimental.readout: MIC (µg/mL)

[
  {
    "compound": "Cc1onc(-c2ccccc2)c1C(=O)N[C@@H]1C(=O)N2[C@@H]1SC(C)(C)[C@@H]2C(=O)O [Oxacillin]",
    "subject.of.test": "VRE 3",
    "relation.operator": ">",
    "experimental.result": 200
  },
  {
    "compound": "CN1C(=O)C(c2cc(Cl)c(O)c(Cl)c2)NC(=O)C2NC(=O)C(c3cc(Cl)c(O)c(Cl)c3)NC(=O)C(NC(=O)C(=O)c3cc(Cl)c(O)c(Cl)c3)Cc3c[nH]c4cc(ccc34)-c3cc2cc(c3O)Oc2ccc(cc2)CC1C(=O)NC(C(=O)O)c1ccc(O)cc1 (stereo not shown) [Complestatin]",
    "subject.of.test": "VRE 3",
    "relation.operator": "=",
    "experimental.result": 1
  },
  {
    "compound": "CN1C(=O)C(c2cc(Cl)c(O)c(Cl)c2)NC(=O)C2NC(=O)C(c3cc(Cl)c(O)c(Cl)c3)NC(=O)C(NC(=O)C(=O)c3cc(Cl)c(O)c(Cl)c3)CC3C(=O)Nc4cc(ccc43)-c3cc2cc(c3O)Oc2ccc(cc2)CC1C(=O)NC(C(=O)O)c1ccc(O)cc1 (stereo not shown) [Neuroprotectin A]",
    "subject.of.test": "VRE 3",
    "relation.operator": "=",
    "experimental.result": 1
  },
  {
    "compound": "CCn1cc(C(=O)O)c(=O)c2cc(F)c(N3CCNCC3)cc21 [Norfloxacin]",
    "subject.of.test": "VRE 3",
    "relation.operator": "=",
    "experimental.result": 50
  }
]

###

system: Staphylococcus epidermidis KCTC 3958; assay: Broth microdilution antibacterial activity (MIC); type: cell-based; conditions: KCTC3958; Staphylococcus epidermidis KCTC 3958; read-out: MIC
# MIC per record follows
experimental.readout: MIC (µg/mL)

[
  {
    "compound": "Cc1onc(-c2ccccc2)c1C(=O)N[C@@H]1C(=O)N2[C@@H]1SC(C)(C)[C@@H]2C(=O)O",
    "experimental.result": 0.25
  },
  {
    "compound": "CN1C(=O)C(c2cc(Cl)c(O)c(Cl)c2)NC(=O)C2NC(=O)C(c3cc(Cl)c(O)c(Cl)c3)NC(=O)C(NC(=O)C(=O)c3cc(Cl)c(O)c(Cl)c3)CC3C(=O)Nc4cc(ccc43)-c3cc2cc(c3O)Oc2ccc(cc2)CC1C(=O)NC(C(=O)O)c1ccc(O)cc1 (stereo not shown)",
    "experimental.result": 2
  },
  {
    "compound": "CCn1cc(C(=O)O)c(=O)c2cc(F)c(N3CCNCC3)cc21",
    "experimental.result": 0.5
  },
  {
    "compound": "CN1C(=O)C(c2cc(Cl)c(O)c(Cl)c2)NC(=O)C2NC(=O)C(c3cc(Cl)c(O)c(Cl)c3)NC(=O)C(NC(=O)C(=O)c3cc(Cl)c(O)c(Cl)c3)Cc3c[nH]c4cc(ccc34)-c3cc2cc(c3O)Oc2ccc(cc2)CC1C(=O)NC(C(=O)O)c1ccc(O)cc1 (stereo not shown)",
    "experimental.result": 2
  }
]

###

Quick reference: MIC of the listed items.
test system: MRSA CCARM 3167; experiment: Broth microdilution antibacterial activity (MIC); assay type: cell-based, Methicillin-resistant Staphylococcus aureus; settings: Staphylococcus aureus; MRSA CCARM 3167; read-out: MIC
experimental.readout: MIC

[
  {
    "compound": "CCn1cc(C(=O)O)c(=O)c2cc(F)c(N3CCNCC3)cc21 [Norfloxacin]",
    "experimental.readout": "MIC",
    "experimental.result": "8 µg/mL"
  },
  {
    "compound": "Cc1onc(-c2ccccc2)c1C(=O)N[C@@H]1C(=O)N2[C@@H]1SC(C)(C)[C@@H]2C(=O)O [Oxacillin]",
    "experimental.readout": "MIC",
    "experimental.result": "500 µg/mL"
  },
  {
    "compound": "CN1C(=O)C(c2cc(Cl)c(O)c(Cl)c2)NC(=O)C2NC(=O)C(c3cc(Cl)c(O)c(Cl)c3)NC(=O)C(NC(=O)C(=O)c3cc(Cl)c(O)c(Cl)c3)CC3C(=O)Nc4cc(ccc43)-c3cc2cc(c3O)Oc2ccc(cc2)CC1C(=O)NC(C(=O)O)c1ccc(O)cc1 (stereo not shown) [Neuroprotectin A]",
    "experimental.readout": "MIC",
    "experimental.result": "1 µg/mL"
  },
  {
    "compound": "CN1C(=O)C(c2cc(Cl)c(O)c(Cl)c2)NC(=O)C2NC(=O)C(c3cc(Cl)c(O)c(Cl)c3)NC(=O)C(NC(=O)C(=O)c3cc(Cl)c(O)c(Cl)c3)Cc3c[nH]c4cc(ccc34)-c3cc2cc(c3O)Oc2ccc(cc2)CC1C(=O)NC(C(=O)O)c1ccc(O)cc1 (stereo not shown) [Complestatin]",
    "experimental.readout": "MIC",
    "experimental.result": "1 µg/mL"
  }
]
